- System: F380Y/beta2Delta
- procedure text: modulators of BK channel variants, profiling panel, selectivity assay, cell-based, U2OS BacMam, thallium flux, beta subunits (AID 1259406);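 further: initial slope of Thallos dye fluorescence rise after thallium is added; log ratio against the mean of 0.3% DMSO vehicle wells on the same plate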
- condition notes: at 30 µM
Let's look at some compounds and their measured log fold change Tl+ flux.
Reply: number alone, nothing else.

CN1CCN(C2=Nc3cc(Cl)ccc3Nc3ccccc32)CC1    0.389

The reported log fold change Tl+ flux of the compound `Cc1cc(NS(=O)(=O)c2ccc(N)cc2)no1` was 0.0172

The reported log fold change Tl+ flux of the compound C[N+]1(C)CCCC(OC(=O)C(O)(c2ccccc2)c2ccccc2)C1 (centres undefined) was -0.0376

The reported log fold change Tl+ flux of the compound `CCC(=O)OCC(=O)[C@@]1(OC(=O)CC)[C@@H](C)C[C@H]2[C@@H]3CCC4=CC(=O)C=C[C@]4(C)[C@@]3(Cl)[C@@H](O)C[C@@]21C` was -0.0617
